# ASSAY_TEXT: modulators of CIT2-GFP expression in yeast, primary screen, S. cerevisiae, GFP fusion, multiplex flow cytometry, MLPCN library (AID 2029);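 note: ratio of well median GFP fluorescence to mean of DMSO wells on the plate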
# CONDITION_DESCRIPTION: S. cerevisiae CIT2-GFP strain, 3 h, at 10 µM, 100 means same as DMSO wells
In all, about 320,000 compounds went through this assay and about 210 (0.066%) were called active.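 Rule for the calls: active = GFP response relative to DMSO above a set limit, near the screen mean plus 3 SD (cut at about 150% in these data); inconclusive = Fewer than 70 cells measured for a yeast strain; inactive = the rest.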 The entries come from a sample that favours actives as a whole.
Write down the outcome that applies. Available outcomes: True = active, False = inactive

COc1ccccc1CCCNC(=O)C1CCC(=O)N(CCN2CCOCC2)C1 (stereo unspecified) = False

Fill in: this test's call for Cc1ccc(NC(=O)C(CC(=O)O)C2CCCO2)c(C)c1 (stereo unspecified) is ___
False

Field: outcome | Entry: CCOc1cc(CN2CCCC(CO)(Cc3ccc(F)cc3F)C2)ccc1OC (stereo unspecified)
False

// param item: CC1CC1C(=O)OCC(=O)c1c(N)n(C)c(=O)n(C)c1=O (stereo unspecified) ; yields the recorded call
False

Assay outcome for CC(=O)Nc1ccc(Nc2nc3c(S(=O)(=O)c4ccc(C)c(C)c4)nnn3c3ccccc23)cc1 : what was it?
False

Field: outcome | Entry: CC(=O)Nc1ccc(NC(=O)C(C)n2c3ccccc3c3nc(=O)cc(C)n32)cc1 (stereo unspecified)
False

Kindly provide the recorded test outcome for the following compound: CC(=O)c1ccc(S(=O)(=O)NCc2nnnn2-c2ccccc2)cc1
False

Answer briefly: the call reported for O=C(NCC(=O)N1CCCCCCC1)c1ccccc1Cl in this assay.
False

Would you mind telling me which call this test gave Cc1cccc(Nc2nc3c(S(=O)(=O)c4ccccc4)nnn3c3ccccc23)c1C ?
True

Status in this test for Cc1ccc(NC(=O)CN(C)C(=O)COC(=O)C(C)(C)Oc2ccc(Cl)cc2)cc1 ?
False

Tell me the assay call for CCCCCC1CC(COc2ccccc2)OC1=O (stereo unspecified) please.
False
